Molecular target: rat CB2 (Rattus norvegicus, UniProt Q9QZN9)
Sequence (Q9QZN9 1-360): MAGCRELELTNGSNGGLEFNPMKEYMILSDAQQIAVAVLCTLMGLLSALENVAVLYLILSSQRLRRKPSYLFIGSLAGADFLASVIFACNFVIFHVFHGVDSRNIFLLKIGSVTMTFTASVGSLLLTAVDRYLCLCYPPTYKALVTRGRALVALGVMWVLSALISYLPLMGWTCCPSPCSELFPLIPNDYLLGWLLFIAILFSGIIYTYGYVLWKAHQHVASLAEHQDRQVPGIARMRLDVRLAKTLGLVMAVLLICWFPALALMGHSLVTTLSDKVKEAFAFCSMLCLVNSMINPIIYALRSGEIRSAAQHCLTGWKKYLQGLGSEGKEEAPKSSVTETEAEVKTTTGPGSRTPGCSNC
Assay: rat CB2 radioligand binding assay ([3H]CP 55,940 competition)
Parameters: expressed in transfected cells; host or cells: HEK293
Conditions: rat CB2 (Ki, nM), HEK293 membranes, 0.5 nM [3H]CP 55,940
So basically, the class depends on measured Ki, and the ranges are L: < 8 nM; M: ≥ 8 nM and < 30 nM; H: ≥ 30 nM

Some entries whose results are on file:
CCCCn1/c(=N/C(=O)c2cc(C(F)(F)F)ccc2SCC(C)O)cc(C(C)(C)C)n1C (centres unmarked) ... M
Cn1c(C(C)(C)C)c/c(=N\C(=O)c2cc(C(F)(F)F)ccc2OCC(C)(C)O)n1C[C@H]1CCCO1 ... L

// bin(item) where item = CCCCn1/c(=N/C(=O)c2cc(C(F)(F)F)ccc2SCC(N)=O)cc(C(C)(C)C)n1C
M

// bin(item) where item = Cn1c(C(C)(C)C)c/c(=N\C(=O)c2cc(C(F)(F)F)ccc2OC[C@H]2COC(C)(C)O2)n1C[C@H]1CCCO1
M

// bin(item) where item = Cn1c(C2(C)CC2)c/c(=N\C(=O)c2cc(C(F)(F)F)ccc2OCC(C)(C)O)n1C[C@H]1CCCO1
L

// bin(item) where item = Cn1c(C(C)(C)C)c/c(=N\C(=O)c2cc(C(F)(F)F)ccc2OCc2ccccn2)n1C[C@H]1CCCO1
M

----------
Biological target: human CB2 receptors (Homo sapiens, UniProt P34972)
Construct: expressed in transfected cells; host or cells: HEK293
Sequence (P34972 whole entry): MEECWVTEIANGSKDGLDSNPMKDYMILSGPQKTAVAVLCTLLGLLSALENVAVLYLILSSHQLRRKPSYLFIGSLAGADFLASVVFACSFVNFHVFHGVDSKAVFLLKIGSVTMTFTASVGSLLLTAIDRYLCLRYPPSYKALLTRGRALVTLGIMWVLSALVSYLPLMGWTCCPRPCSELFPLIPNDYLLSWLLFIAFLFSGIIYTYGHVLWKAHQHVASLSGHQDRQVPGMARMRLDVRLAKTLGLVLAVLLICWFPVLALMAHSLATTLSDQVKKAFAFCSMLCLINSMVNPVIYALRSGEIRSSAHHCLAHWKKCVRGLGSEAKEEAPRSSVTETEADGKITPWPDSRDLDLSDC
Experiment: human CB2 radioligand binding assay ([3H]CP 55,940 competition)
Settings: human CB2 (Ki, nM), HEK293 membranes, 0.5 nM [3H]CP 55,940
Measurement type: log10(Ki) (log10 of the value in nM)
Base-10 log of Ki, unit nM.

In the examples that follow, each entry is paired with its recorded log10(Ki).
CCCCn1/c(=N/C(=O)c2cc(C(F)(F)F)ccc2SCC(C)(C)O)cc(C(C)(C)C)n1C ... 1.74
CC[C@H](O)COc1ccc(C(F)(F)F)cc1C(=O)/N=c1\cc(C(C)(C)C)n(C)n1C[C@H]1CCCO1 ... 0.11
C[C@H](O)COc1ccc(C(F)(F)F)cc1C(=O)/N=c1\cc(C(C)(C)C)n(C)n1C[C@H]1CCCO1 ... 0.66

List reported log10(Ki) for each of these molecules:
1. CC(C)(O)COc1ccc(C(F)(F)F)cc1C(=O)/N=c1\sc(C(C)(C)C)nn1CC1CCO1 (stereo not shown)
2. Cn1c(C(C)(C)C)c/c(=N\C(=O)c2cc(C(F)(F)F)ccc2OCc2cnccn2)n1C[C@H]1CCCO1
3. CSCCCOc1ccc(C(F)(F)F)cc1C(=O)/N=c1\cc(C(C)(C)C)n(C)n1C[C@H]1CCCO1

0.97
2.10
0.59

Recorded values, source patent US8188135B2.
